molecular target: Cytochrome P450 1A2 (Homo sapiens, UniProt P05177); experiment: Inhibition of recombinant human CYP1A2 by fluorescence microplate reader assay
Sequence (P05177 whole entry): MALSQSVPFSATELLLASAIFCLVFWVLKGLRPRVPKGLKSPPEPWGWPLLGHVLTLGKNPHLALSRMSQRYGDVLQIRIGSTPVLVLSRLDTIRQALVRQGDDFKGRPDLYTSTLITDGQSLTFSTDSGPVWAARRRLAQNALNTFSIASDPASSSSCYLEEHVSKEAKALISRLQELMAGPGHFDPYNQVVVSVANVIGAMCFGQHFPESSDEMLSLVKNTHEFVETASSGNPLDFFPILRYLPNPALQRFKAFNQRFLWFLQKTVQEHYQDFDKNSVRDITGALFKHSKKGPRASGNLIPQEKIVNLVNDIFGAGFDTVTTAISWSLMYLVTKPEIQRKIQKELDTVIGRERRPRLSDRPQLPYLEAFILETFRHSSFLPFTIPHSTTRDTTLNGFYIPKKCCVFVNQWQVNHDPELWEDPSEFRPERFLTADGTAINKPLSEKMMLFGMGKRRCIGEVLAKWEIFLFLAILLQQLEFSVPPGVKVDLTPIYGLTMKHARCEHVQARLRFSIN
We begin with a simple list: items and their reported IC50.

[
  {
    "test-smiles": "COCCOCc1nn(C)c2c1CSCc1cc(n(C)n1)CCc1cc(c3ccc(F)cc3c1)OCCCc1c(C(=O)O)n(C)c3c-2c(Cl)ccc13",
    "IC50": "> 20 µM"
  },
  {
    "test-smiles": "Cn1nc2cc1CCc1cc(c3ccc(F)cc3c1)OCCCc1c(C(=O)O)n(CCN3CCOCC3)c3c(c(Cl)ccc13)-c1c(cnn1C)CSC2",
    "IC50": "> 20 µM"
  }
]

* * *

We begin with a simple list: items and their reported solubility at 72 h.
experiment: Solubility of compound in pH 2 buffer incubated for 3 days by LC-MS/MS analysis; type: physicochemical; details: time 3 day

[
  {
    "test-smiles": "Cc1nn(C)c2c1CSCc1cc(n(C)n1)CCc1cc(c3ccccc3c1)OCCCc1c(C(=O)[O-])n(C)c3c-2c(Cl)ccc13.[Na+]",
    "solubility at 72 h": "< 0.04 µM"
  },
  {
    "test-smiles": "COCCn1c(C(=O)O)c2c3ccc(Cl)c(c31)-c1c(cnn1C)CSCc1cc(n(C)n1)CCc1cc(c3ccc(F)cc3c1)OCCC2",
    "solubility at 72 h": "< 0.02 µM"
  },
  {
    "test-smiles": "Cn1nc2cc1CCc1cc(c3ccc(F)cc3c1)OCCCc1c(C(=O)O)n(CCN3CCOCC3)c3c(c(Cl)ccc13)-c1c(cnn1C)CSC2",
    "solubility at 72 h": "580 µM"
  },
  {
    "test-smiles": "COCCOCc1nn(C)c2c1CSCc1cc(n(C)n1)CCc1cc(c3ccccc3c1)OCCCc1c(C(=O)O)n(C)c3c-2c(Cl)ccc13",
    "solubility at 72 h": "< 0.06 µM"
  },
  {
    "test-smiles": "Cc1nn(C)c2c1CSCc1cc(n(C)n1)CCc1cc(c3ccc(F)cc3c1)OCCCc1c(C(=O)[O-])n(C)c3c-2c(Cl)ccc13.[Na+]",
    "solubility at 72 h": "< 0.03 µM"
  },
  {
    "test-smiles": "COCCOCCc1nn(C)c2c1CSCc1cc(n(C)n1)CCc1cc(c3ccc(F)cc3c1)OCCCc1c(C(=O)O)n(C)c3c-2c(Cl)ccc13",
    "solubility at 72 h": "< 0.29 µM"
  }
]

* * *

test: Solubility of compound in pH 2 buffer incubated for 3 days by LC-MS/MS analysis; assay type: physicochemical; conditions: time 3 day
We begin with a simple list: items and their reported solubility at 72 h.

[
  {
    "test-smiles": "Cc1nn(C)c2c1CSCc1cc(n(C)n1)CSc1cc(c3ccccc3c1)OCCCc1c(C(=O)O)n(C)c3c-2c(Cl)ccc13",
    "solubility at 72 h": "< 0.27 µM"
  },
  {
    "test-smiles": "Cn1nc2cc1CSc1cc(c3ccccc3c1)OCCCc1c(C(=O)O)n(C)c3c(c(Cl)ccc13)-c1c(cnn1C)CSC2",
    "solubility at 72 h": "< 0.55 µM"
  },
  {
    "test-smiles": "COCCOCc1nn(C)c2c1CSCc1cc(n(C)n1)CCc1cc(c3ccc(F)cc3c1)OCCCc1c(C(=O)O)n(C)c3c-2c(Cl)ccc13",
    "solubility at 72 h": "< 0.02 µM"
  },
  {
    "test-smiles": "COCCOCCn1c(C(=O)O)c2c3ccc(Cl)c(c31)-c1c(cnn1C)CSCc1cc(n(C)n1)CCc1cc(c3ccc(F)cc3c1)OCCC2",
    "solubility at 72 h": "< 0.23 µM"
  }
]

* * *

test: Intrinsic clearance in human liver microsomes; format: ADME, Microsome; settings: read-out: CLH
observed-property: microsomal CLint (µL/min/mg)

[
  {
    "test-smiles": "COCCOCc1nn(C)c2c1CSCc1cc(n(C)n1)CCc1cc(c3ccc(F)cc3c1)OCCCc1c(C(=O)O)n(C)c3c-2c(Cl)ccc13",
    "assay-value": 48
  },
  {
    "test-smiles": "Cn1nc2cc1CCc1cc(c3ccc(F)cc3c1)OCCCc1c(C(=O)O)n(CCN3CCOCC3)c3c(c(Cl)ccc13)-c1c(cnn1C)CSC2",
    "assay-value": 43
  }
]

* * *

target: Induced myeloid leukemia cell differentiation protein Mcl-1 (Homo sapiens); assay: Displacement of Cy5-labeled BIM BH3 peptide (H3N-(C/Cy5Mal)-WIAQELRRIGDEFN-OH) from MCL-1 (unknown origin) assessed as inhibition constant incubated for 60 mins by HTRF assay
Sequence (Q07820 whole entry): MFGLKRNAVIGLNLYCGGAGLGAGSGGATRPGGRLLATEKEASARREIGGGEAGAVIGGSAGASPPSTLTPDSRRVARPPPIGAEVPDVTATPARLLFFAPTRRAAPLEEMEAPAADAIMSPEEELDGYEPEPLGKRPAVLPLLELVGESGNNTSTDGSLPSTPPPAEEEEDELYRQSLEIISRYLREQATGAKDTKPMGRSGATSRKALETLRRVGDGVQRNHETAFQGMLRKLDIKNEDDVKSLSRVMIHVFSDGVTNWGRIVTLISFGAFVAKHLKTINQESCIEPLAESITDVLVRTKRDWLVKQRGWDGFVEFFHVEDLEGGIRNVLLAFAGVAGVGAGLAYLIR
pKi: −log10 of the molar value.

[
  {
    "test-smiles": "CN(C)CCn1c(C(=O)O)c2c3ccc(Cl)c(c31)-c1c(cnn1C)CSCc1cc(n(C)n1)CCc1cc(c3ccc(F)cc3c1)OCCC2",
    "target-desc": "Induced myeloid leukemia cell differentiation protein Mcl-1 (Homo sapiens)",
    "pKi": 10.47
  },
  {
    "test-smiles": "Cc1nn(C)c2c1CSCc1cc(n(C)n1)CCc1cc(c3ccccc3c1)OCCCc1c(C(=O)[O-])n(C)c3c-2c(Cl)ccc13.[Na+]",
    "target-desc": "Induced myeloid leukemia cell differentiation protein Mcl-1 (Homo sapiens)",
    "pKi": 10.49
  },
  {
    "test-smiles": "Cn1nc2cc1CCc1cc(c3ccc(F)cc3c1)OCCCc1c(C(=O)O)n(CCN3CCOCC3)c3c(c(Cl)ccc13)-c1c(cnn1C)CSC2",
    "target-desc": "Induced myeloid leukemia cell differentiation protein Mcl-1 (Homo sapiens)",
    "pKi": 10.70
  },
  {
    "test-smiles": "COCCOCCc1nn(C)c2c1CSCc1cc(n(C)n1)CCc1cc(c3ccc(F)cc3c1)OCCCc1c(C(=O)O)n(C)c3c-2c(Cl)ccc13",
    "target-desc": "Induced myeloid leukemia cell differentiation protein Mcl-1 (Homo sapiens)",
    "pKi": 10.89
  },
  {
    "test-smiles": "Cn1nc2cc1CCc1cc(c3ccc(F)cc3c1)OCCCc1c(C(=O)O)[nH]c3c(c(Cl)ccc13)-c1c(cnn1C)CSC2",
    "target-desc": "Induced myeloid leukemia cell differentiation protein Mcl-1 (Homo sapiens)",
    "pKi": 10.33
  },
  {
    "test-smiles": "COCCOCc1nn(C)c2c1CSCc1cc(n(C)n1)CCc1cc(c3ccc(F)cc3c1)OCCCc1c(C(=O)O)n(C)c3c-2c(Cl)ccc13",
    "target-desc": "Induced myeloid leukemia cell differentiation protein Mcl-1 (Homo sapiens)",
    "pKi": 10.74
  },
  {
    "test-smiles": "COCCn1c(C(=O)O)c2c3ccc(Cl)c(c31)-c1c(cnn1C)CSCc1cc(n(C)n1)CCc1cc(c3ccc(F)cc3c1)OCCC2",
    "target-desc": "Induced myeloid leukemia cell differentiation protein Mcl-1 (Homo sapiens)",
    "pKi": 10.66
  },
  {
    "test-smiles": "Cc1nn(C)c2c1CSCc1cc(n(C)n1)CSc1cc(c3ccccc3c1)OCCCc1c(C(=O)O)n(C)c3c-2c(Cl)ccc13",
    "target-desc": "Induced myeloid leukemia cell differentiation protein Mcl-1 (Homo sapiens)",
    "pKi": 10.40
  },
  {
    "test-smiles": "COCCOCc1nn(C)c2c1CSCc1cc(n(C)n1)CCc1cc(c3ccccc3c1)OCCCc1c(C(=O)O)n(C)c3c-2c(Cl)ccc13",
    "target-desc": "Induced myeloid leukemia cell differentiation protein Mcl-1 (Homo sapiens)",
    "pKi": 10.64
  },
  {
    "test-smiles": "Cc1nn(C)c2c1CSCc1cc(n(C)n1)CCc1cc(c3ccc(F)cc3c1)OCCCc1c(C(=O)[O-])n(C)c3c-2c(Cl)ccc13.[Na+]",
    "target-desc": "Induced myeloid leukemia cell differentiation protein Mcl-1 (Homo sapiens)",
    "pKi": 10.39
  },
  {
    "test-smiles": "COCCOCCn1c(C(=O)O)c2c3ccc(Cl)c(c31)-c1c(cnn1C)CSCc1cc(n(C)n1)CCc1cc(c3ccc(F)cc3c1)OCCC2",
    "target-desc": "Induced myeloid leukemia cell differentiation protein Mcl-1 (Homo sapiens)",
    "pKi": 10.70
  }
]

* * *

test: Ratio of AC50 for induction of apoptosis in human MOLP8 cells using luminescent caspase-3/7 as substrate to Ki for displacement of Cy5-labeled BIM BH3 peptide (H3N-(C/Cy5Mal)-WIAQELRRIGDEFN-OH) from MCL-1 (unknown origin) assessed as inhibition constant
observed-property: Ratio

[
  {
    "test-smiles": "COCCOCc1nn(C)c2c1CSCc1cc(n(C)n1)CCc1cc(c3ccc(F)cc3c1)OCCCc1c(C(=O)O)n(C)c3c-2c(Cl)ccc13",
    "observed-property": "Ratio",
    "assay-value": 777
  },
  {
    "test-smiles": "Cc1nn(C)c2c1CSCc1cc(n(C)n1)CCc1cc(c3ccccc3c1)OCCCc1c(C(=O)[O-])n(C)c3c-2c(Cl)ccc13.[Na+]",
    "observed-property": "Ratio",
    "assay-value": 1406
  },
  {
    "test-smiles": "Cn1nc2cc1CCc1cc(c3ccc(F)cc3c1)OCCCc1c(C(=O)O)[nH]c3c(c(Cl)ccc13)-c1c(cnn1C)CSC2",
    "observed-property": "Ratio",
    "assay-value": 4300
  },
  {
    "test-smiles": "COCCOCCn1c(C(=O)O)c2c3ccc(Cl)c(c31)-c1c(cnn1C)CSCc1cc(n(C)n1)CCc1cc(c3ccc(F)cc3c1)OCCC2",
    "observed-property": "Ratio",
    "assay-value": 2600
  },
  {
    "test-smiles": "CN(C)CCn1c(C(=O)O)c2c3ccc(Cl)c(c31)-c1c(cnn1C)CSCc1cc(n(C)n1)CCc1cc(c3ccc(F)cc3c1)OCCC2",
    "observed-property": "Ratio",
    "assay-value": 3530
  },
  {
    "test-smiles": "Cn1nc2cc1CCc1cc(c3ccc(F)cc3c1)OCCCc1c(C(=O)O)n(CCN3CCOCC3)c3c(c(Cl)ccc13)-c1c(cnn1C)CSC2",
    "observed-property": "Ratio",
    "assay-value": 3800
  },
  {
    "test-smiles": "COCCOCCc1nn(C)c2c1CSCc1cc(n(C)n1)CCc1cc(c3ccc(F)cc3c1)OCCCc1c(C(=O)O)n(C)c3c-2c(Cl)ccc13",
    "observed-property": "Ratio",
    "assay-value": 1230
  },
  {
    "test-smiles": "Cc1nn(C)c2c1CSCc1cc(n(C)n1)CSc1cc(c3ccccc3c1)OCCCc1c(C(=O)O)n(C)c3c-2c(Cl)ccc13",
    "observed-property": "Ratio",
    "assay-value": 1350
  },
  {
    "test-smiles": "COCCOCc1nn(C)c2c1CSCc1cc(n(C)n1)CCc1cc(c3ccccc3c1)OCCCc1c(C(=O)O)n(C)c3c-2c(Cl)ccc13",
    "observed-property": "Ratio",
    "assay-value": 1870
  },
  {
    "test-smiles": "COCCn1c(C(=O)O)c2c3ccc(Cl)c(c31)-c1c(cnn1C)CSCc1cc(n(C)n1)CCc1cc(c3ccc(F)cc3c1)OCCC2",
    "observed-property": "Ratio",
    "assay-value": 1954
  },
  {
    "test-smiles": "Cc1nn(C)c2c1CSCc1cc(n(C)n1)CCc1cc(c3ccc(F)cc3c1)OCCCc1c(C(=O)[O-])n(C)c3c-2c(Cl)ccc13.[Na+]",
    "observed-property": "Ratio",
    "assay-value": 243
  }
]
